# METHOD_NOTES: Toxicokinetics in the 28 day dog study of DIO-902 (with racemic ketoconazole group a)
# PARTICULARS: male, beagle, plasma, po, 6.5 mg/kg, Drug concentration in plasma, dogs, 6.5 mg/kg oral, day 28, M, 4 h
MEASURED_QUANTITY: concentration at 4 h (ng/mL)
Use ng/mL as the unit, but write only the number.

Find the recorded concentration at 4 h belonging to CC(=O)N1CCN(c2ccc(OC[C@@H]3CO[C@@](Cn4ccnc4)(c4ccc(Cl)cc4Cl)O3)cc2)CC1 [DIO-902] and report it. 1540

###

# METHOD_NOTES: Toxicokinetics in the 28 day dog study of DIO-902 (with racemic ketoconazole group a)
# PARTICULARS: female, beagle, plasma, po, 40 mg/kg, Drug concentration in plasma, dogs, group a: 40 mg/kg oral, day 1, F, 12 h
MEASURED_QUANTITY: concentration at 12 h (ng/mL)
Provide only the numeric value, understood in ng/mL.

Which measured concentration at 12 h value corresponds to CC(=O)N1CCN(c2ccc(OCC3COC(Cn4ccnc4)(c4ccc(Cl)cc4Cl)O3)cc2)CC1 (racemic) [Racemic ketoconazole] ? 14800

###

# METHOD_NOTES: Toxicokinetics of racemic ketoconazole in another 28-day dog study (b)
# PARTICULARS: female, beagle, dog, plasma, po, 10 mg/kg, Drug concentration in plasma, dogs, study b, powder, 10 mg/kg oral, day 1, F, 8 h
MEASURED_QUANTITY: concentration at 8 h

Look up concentration at 8 h: CC(=O)N1CCN(c2ccc(OCC3COC(Cn4ccnc4)(c4ccc(Cl)cc4Cl)O3)cc2)CC1 (racemic) [Racemic ketoconazole] < 250 ng/mL

###

# METHOD_NOTES: Toxicokinetics in the 28 day dog study of DIO-902 (with racemic ketoconazole group a)
# PARTICULARS: female, beagle, plasma, oral, 20 mg/kg, Drug concentration in plasma, dogs, group a: 20 mg/kg oral (after 40 mg/kg days 1-9, pause), day 28, F, 0 h
MEASURED_QUANTITY: concentration at 0 h

Need concentration at 0 h, item CC(=O)N1CCN(c2ccc(OCC3COC(Cn4ccnc4)(c4ccc(Cl)cc4Cl)O3)cc2)CC1 (racemic) [Racemic ketoconazole] < 250 ng/mL

###

# METHOD_NOTES: Toxicokinetics of racemic ketoconazole in another 28-day dog study (b)
# PARTICULARS: female, beagle, dog, plasma, po, 10 mg/kg, Drug concentration in plasma, dogs, study b, powder, 10 mg/kg oral, day 1, F, 2 h
# Excerpt: Two groups of three male and three female dogs per group were studied. Toxicokinetic samples were collected on Day 1 and during Weeks 2 and 4. […] For the following Table: *Days of treatment.
MEASURED_QUANTITY: concentration at 2 h

Consider the compound shown here: CC(=O)N1CCN(c2ccc(OCC3COC(Cn4ccnc4)(c4ccc(Cl)cc4Cl)O3)cc2)CC1 (racemic) [Racemic ketoconazole] What is its recorded concentration at 2 h? 1230 ng/mL

###

# METHOD_NOTES: Toxicokinetics in the 28 day dog study of DIO-902 (with racemic ketoconazole group a)
# PARTICULARS: female, beagle, plasma, po, 6.5 mg/kg, Drug concentration in plasma, dogs, 6.5 mg/kg oral, day 28, F, 2 h
MEASURED_QUANTITY: concentration at 2 h
Please answer using the number first and the unit second.

GET /values?readout=concentration at 2 h&item= CC(=O)N1CCN(c2ccc(OC[C@@H]3CO[C@@](Cn4ccnc4)(c4ccc(Cl)cc4Cl)O3)cc2)CC1 1250 ng/mL

###

# METHOD_NOTES: Toxicokinetics in the 28 day dog study of DIO-902 (with racemic ketoconazole group a)
# PARTICULARS: male, beagle, plasma, po, 20 mg/kg, Drug concentration in plasma, dogs, 20 mg/kg oral, day 1, M, 8 h
MEASURED_QUANTITY: concentration at 8 h

// returns reported concentration at 8 h for input CC(=O)N1CCN(c2ccc(OC[C@@H]3CO[C@@](Cn4ccnc4)(c4ccc(Cl)cc4Cl)O3)cc2)CC1 2920 ng/mL

###

# METHOD_NOTES: Toxicokinetics in the 28 day dog study of DIO-902 (with racemic ketoconazole group a)
# PARTICULARS: female, beagle, plasma, po, 40 mg/kg, Cmax, dogs, group a: 40 mg/kg oral, day 1, F
MEASURED_QUANTITY: Cmax (ng/mL)
I only need the number, in ng/mL, no unit after it.

Could you tell me which Cmax is on file for CC(=O)N1CCN(c2ccc(OCC3COC(Cn4ccnc4)(c4ccc(Cl)cc4Cl)O3)cc2)CC1 (racemic) [Racemic ketoconazole] ? 21300

###

# METHOD_NOTES: Toxicokinetics of racemic ketoconazole in another 28-day dog study (b)
# PARTICULARS: male, beagle, dog, plasma, po, 40 mg/kg, Drug concentration in plasma, dogs, study b, powder, 40 mg/kg oral, day 1, M, 1 h
MEASURED_QUANTITY: concentration at 1 h (ng/mL)
Output spec: scalar in ng/mL, unitless text.

Any idea what its concentration at 1 h is? The compound is CC(=O)N1CCN(c2ccc(OCC3COC(Cn4ccnc4)(c4ccc(Cl)cc4Cl)O3)cc2)CC1 (racemic) [Racemic ketoconazole] 10300

###

# METHOD_NOTES: Toxicokinetics in the 28 day dog study of DIO-902 (with racemic ketoconazole group a)
# PARTICULARS: male, beagle, plasma, po, 40 mg/kg, Drug concentration in plasma, dogs, group a: 40 mg/kg oral, day 1, M, 12 h
MEASURED_QUANTITY: concentration at 12 h (ng/mL)
Unit ng/mL implied. Number only.

For the compound CC(=O)N1CCN(c2ccc(OCC3COC(Cn4ccnc4)(c4ccc(Cl)cc4Cl)O3)cc2)CC1 (racemic) [Racemic ketoconazole] , what concentration at 12 h is on record? 12800

###

# METHOD_NOTES: Toxicokinetics in the 28 day dog study of DIO-902 (with racemic ketoconazole group a)
# PARTICULARS: male, beagle, plasma, po, 6.5 mg/kg, Drug concentration in plasma, dogs, 6.5 mg/kg oral, day 1, M, 1 h
MEASURED_QUANTITY: concentration at 1 h

Could you share which concentration at 1 h value was measured for CC(=O)N1CCN(c2ccc(OC[C@@H]3CO[C@@](Cn4ccnc4)(c4ccc(Cl)cc4Cl)O3)cc2)CC1 [DIO-902] ? 1190 ng/mL

###

# METHOD_NOTES: Toxicokinetics in the 28 day dog study of DIO-902 (with racemic ketoconazole group a)
# PARTICULARS: male, beagle, plasma, po, 2 mg/kg, Drug concentration in plasma, dogs, 2 mg/kg oral, day 28, M, 2 h
MEASURED_QUANTITY: concentration at 2 h (ng/mL)
Supply the numeric figure in ng/mL, leaving out any unit text.

Any idea what its concentration at 2 h is? The molecule is CC(=O)N1CCN(c2ccc(OC[C@@H]3CO[C@@](Cn4ccnc4)(c4ccc(Cl)cc4Cl)O3)cc2)CC1 540

###

# METHOD_NOTES: Toxicokinetics in the 28 day dog study of DIO-902 (with racemic ketoconazole group a)
# PARTICULARS: male, beagle, plasma, po, 2 mg/kg, Drug concentration in plasma, dogs, 2 mg/kg oral, day 1, M, 2 h
MEASURED_QUANTITY: concentration at 2 h (ng/mL)
Write down the numeric answer in ng/mL and omit the unit.

Quick one: concentration at 2 h for CC(=O)N1CCN(c2ccc(OC[C@@H]3CO[C@@](Cn4ccnc4)(c4ccc(Cl)cc4Cl)O3)cc2)CC1 [DIO-902] ? 450

###

# METHOD_NOTES: Toxicokinetics of racemic ketoconazole in another 28-day dog study (b)
# PARTICULARS: female, beagle, dog, plasma, po, 10 mg/kg, Drug concentration in plasma, dogs, study b, powder, 10 mg/kg oral, day 1, F, 1 h
MEASURED_QUANTITY: concentration at 1 h (ng/mL)
# number only, unit ng/mL dropped from output

Which value of concentration at 1 h has been reported for CC(=O)N1CCN(c2ccc(OCC3COC(Cn4ccnc4)(c4ccc(Cl)cc4Cl)O3)cc2)CC1 (racemic) [Racemic ketoconazole] in the records? 1300

###

# METHOD_NOTES: Toxicokinetics in the 28 day dog study of DIO-902 (with racemic ketoconazole group a)
# PARTICULARS: male, beagle, plasma, po, 20 mg/kg, AUC(0-12), dogs, 20 mg/kg oral, day 1, M
MEASURED_QUANTITY: AUC(0-t) (ng·h/mL)
Hi! Could you send only the number? It should be in ng·h/mL, unit omitted.

Form field: reported AUC(0-t) of CC(=O)N1CCN(c2ccc(OC[C@@H]3CO[C@@](Cn4ccnc4)(c4ccc(Cl)cc4Cl)O3)cc2)CC1 [DIO-902] 60600

###

# METHOD_NOTES: Toxicokinetics in the 28 day dog study of DIO-902 (with racemic ketoconazole group a);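 note: beagle dogs dosed orally once daily within a 28-day GLP study, 3 animals per sex per group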
# PARTICULARS: male, beagle, plasma, po, 20 mg/kg, Drug concentration in plasma, dogs, 20 mg/kg oral, day 28, M, 2 h
MEASURED_QUANTITY: concentration at 2 h (ng/mL)
Please reply with the bare figure in ng/mL and do not write the unit itself.

// query concentration at 2 h value for entry CC(=O)N1CCN(c2ccc(OC[C@@H]3CO[C@@](Cn4ccnc4)(c4ccc(Cl)cc4Cl)O3)cc2)CC1 [DIO-902] 9780
